Recorded MIC50, one value per entry.
- Tested on: Parabacteroides distasonis
- method: Antimicrobial activity against beta lactamase-positive Bacteroides distasonis isolated from intra-abdominal infection and pelvic inflammatory disease patients after 48 hrs by agar dilution method
- Assay type: functional
Value expressed in µg/mL; do not type the unit.

Previously resolved entries follow.
C[C@@H](O)[C@H]1C(=O)N2C(C(=O)O)=C(S[C@@H]3CN[C@H](C(=O)Nc4cccc(C(=O)O)c4)C3)[C@H](C)[C@H]12 = 0.5
C[C@@H](O)[C@H]1C(=O)N2C(C(=O)O)=C(SCCNC=N)C[C@H]12 [IMIPENEM ANHYDROUS] = 0.5

Here is the next item to consider.
Find the recorded MIC50 belonging to `C[C@@H](O)[C@H]1C(=O)N2C(C(=O)O)=C(S[C@@H]3CN[C@H](CNS(N)(=O)=O)C3)[C@H](C)[C@H]12` and report it.
0.5
